# Procedure text: LAP4-GFP expression modulators in yeast, confirmation, cell-based, cherry picks, flow cytometry, mother/daughter gates (AID 2271);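 further: ratio of sample to DMSO plate mean so 100% equals DMSO level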
# Details: S. cerevisiae LAP4-GFP strain, 3 h, measured here: mother cell gate response, at 10 µM, stronger effect = higher value
Below, each entry is listed alongside its reported GFP response relative to DMSO.
Report only the number, with the unit % understood.

### Prompt Given the entry COc1ccc(N2C(=O)/C(=C/c3ccco3)C(=O)NC2=S)cc1 , report its measured GFP response relative to DMSO.
### Response 94.2

### Prompt Then this compound: C#C[C@]1(O)CC[C@H]2[C@@H]3CCC4=CC(=O)CC[C@]4(C)[C@H]3CC[C@@]21C
### Response 101

Next:
### Prompt Given the entry O=C1C(=O)c2ccccc2-c2ccccc21 , report its measured GFP response relative to DMSO.
### Response 169

### Prompt Then this compound: O=c1oc2ccccc2c(O)c1[C@H]1c2ccc(O)cc2Oc2c1c(=O)oc1ccccc21
### Response 192

### Prompt Then this compound: Nc1ccc2ccc3cccc[n+]3c2c1
### Response 178

### Prompt Then this compound: O=C1NC(=O)N(Cc2ccco2)C(=O)/C1=C\c1ccc(-c2ccc(F)cc2)o1
### Response 121

### Prompt Then this compound: Cc1cccn2c(NCC3CCCO3)c(C(C)C)nc12 (stereo not given)
### Response 96.5

### Prompt Then this compound: Cc1ccc(/C=C2\C(=O)NC(=O)N(CC3CCCO3)C2=O)s1 (stereo not given)
### Response 104

### Prompt Then this compound: CC12CN3CC(C)(CN(C1)C31CCOCC1)C2=O
### Response 100

### Prompt Then this compound: O=C1NC(=S)N(c2ccccc2)C(=O)/C1=C/c1ccco1
### Response 111

### Prompt Then this compound: CCCCn1c(=O)c(C(=O)Nc2ccsc2C(=O)OC)c(O)c2ccccc21
### Response 94.1

### Prompt Then this compound: CCN(CC)c1ccc(C=C2C(=O)NC(=S)NC2=O)cc1
### Response 131

These entries and their values trace back to PubChem BioAssay.
